Test system: NCI-H522 lung
experiment: NCI-60 one-dose screen, 48 h (100 = growth as untreated, 0 = no growth, -100 = all killed)
conditionContext: 10 µM unless noted
Procedure: Growth inhibition of the NCI-H522 human Non-Small Cell Lung tumor cell line is measured as a screen for anti-cancer activity. Cells are grown in 96 well plates and exposed to the test compound for 48 hours. Compounds are tested at a single concentration, which is 10^-5 M for most compounds. The reported endpoint is percent growth (GI% or GIPRCNT), where numbers from 0 - 100% represent growth inhibition, and numbers from -100% - 0 represent cell death. […]
This is part of a sample that, as a whole, favours compounds with a hit. Of some 83,000 tested, about 20% had one in any assay.
Please mark true (1) if the recorded growth is equal to or greater than 90%, and false (0) if it falls below.

> print(dat)
                                   compound  assignedcategory
1  CC(C)NC(=O)N1C(=O)CCC1NNC(=O)c1ccc([N+](=O)[O-])cc1 (configuration not stated)          true (1)
2  O=C(Nc1sc2c(c1C(=O)O)CCCC2)c1cccc(C(F)(F)F)c1         false (0)
3  Clc1cc(Cl)cc(N2N=C(c3cccc(Nc4ccncc4)c3)CC2c2ccc(Br)cc2)c1 (configuration not stated)         false (0)
4         Cc1ccc(S(=O)(=O)Nc2ccc(Cl)cc2)cc1          true (1)
5  COc1cc2nc(-c3ccc(C(F)(F)F)cc3)cc(OCCCN3CCC(O)CC3)c2cc1OC         false (0)
6  CC1=CC[C@@H]2CC[C@]3(C)[C@H](CC[C@@H]4[C@@]5(C)CCCNC(C)(C)[C@@H]5CC[C@]43C)[C@H]2[C@@H]1C          true (1)

---

System: SK-MEL-2 melanoma
experiment: NCI-60 one-dose screen, 48 h (100 = growth as untreated, 0 = no growth, -100 = all killed)
conditionContext: 10 µM unless noted
This is part of a sample that, as a whole, favours compounds with a hit. Of some 83,000 tested, about 20% had one in any assay. Active and inactive are the calls of the source. How the source made its calls: active means growth percent below 10; inactive means the rest.
Items are presented alongside their recorded growth.
measurementLabel: growth

> print(dat)
                                 testsmiles  measurementlabel            result
1  COc1cccc(CNCCN2C(=O)c3ccc4c5c(ccc(c35)C2=O)C(=O)N(CCNCc2cccc(OC)c2)C4=O)c1            growth  90.4% (inactive)
2  O=C1Nc2ccccc2/C1=N/c1nc(-c2ccc(Cl)cc2)cs1            growth  88.2% (inactive)
3  Cc1ccc(C(c2c(O)c3cc(Br)ccc3[nH]c2=O)c2c(O)c3cc(Br)ccc3[nH]c2=O)cc1            growth  90.2% (inactive)

---

Tested on: SF-539 CNS
experiment: NCI-60 one-dose screen, 48 h (100 = growth as untreated, 0 = no growth, -100 = all killed)
conditionContext: 10 µM unless noted
This is part of a sample that, as a whole, favours compounds with a hit. Of some 83,000 tested, about 20% had one in any assay.
Items are presented alongside their recorded growth.
measurementLabel: growth (%)

compound	measurementLabel	unitAbbreviation	quantitativeResult
C=Cc1cc[n+](CCCCCCCCCCCC)cc1	growth	%	104
CN1C(=O)N(C)C2NC(N/N=C/c3ccccc3)=NC21 (stereo not given)	growth	%	94.9
COc1ccc(-c2c(-c3ccccc3)noc2N)cc1OC	growth	%	115
O=C(Nc1ccc(Cl)cc1)Nc1ccc(Cl)c(Cl)c1	growth	%	-19.2
COc1cccc(/C=C2\COc3ccc(-c4ccccc4)cc3C2=O)c1	growth	%	-29.8
CC(=O)OC1CCC2(C)C(CCC3C4CC=C(C(C)=O)C4(C)OC(=O)CC32)C1 (stereo not given)	growth	%	61.7
COc1cc(-c2nc3sccn3c2-c2ccnc(NCCNS(=O)(=O)c3ccc(F)cc3)n2)ccc1F	growth	%	31.2
CCCCCCCCCCCCC1CCC/C=C\CCC(=O)O1 (stereo not given)	growth	%	104
CN1CCN(c2cc(F)c(NC3=C(Cl)C(=O)c4ncccc4C3=O)c(F)c2)CC1	growth	%	-25.1
CC(c1ccccc1)n1ccnc1CO (stereo not given)	growth	%	106
COc1ccc(-n2cc(-c3cc(OC)c(OC)c(OC)c3)n(C(C)=O)c2=O)cc1	growth	%	90.2
NNC(=O)/C(=C\c1ccc([N+](=O)[O-])cc1)CC(=O)c1ccc(Cl)c(Cl)c1	growth	%	98.1
C=C(C)[C@@H]1CC[C@]2(C(=O)O)CC[C@]3(C)[C@H](CC[C@@H]4[C@@]5(C)C[C@@H](CC#Cc6ccc(Br)cc6)C(=O)C(C)(C)[C@@H]5CC[C@]43C)[C@@H]12	growth	%	61.1
Cc1ccccc1-c1cc(Cc2ccc(F)cc2)c(=O)[nH]n1	growth	%	94.2
COc1ccc(/C=C/C(=O)c2ccc(OC)c(OC)c2)cc1O	growth	%	79.8
